system: MOLT-4; test: NCI one-dose SRB growth assay; format: cell-based; conditions: Homo sapiens; MOLT-4 (Leukemia), 10^-5 M, 48 h; read-out: % Growth Inhibition (GI %)
MEASURED PROPERTY: inhibition at 10 µM (%)

1) O=C(O)c1cn(C2CC2)c2cc(N3CCN(S(=O)(=O)c4ccc(Cl)cc4Cl)CC3)c(F)cc2c1=O 24.1
2) CCn1cc(C(=O)O)c(=O)c2cc(F)c(N3CCN(S(=O)(=O)c4c(C)cc(C)cc4C)CC3)cc21 24.1
3) CCn1cc(C(=O)O)c(=O)c2cc(F)c(N3CCN(S(=O)(=O)c4ccc(Cl)cc4)CC3)cc21 76.4
4) O=C(O)c1cn(C2CC2)c2cc(N3CCN(S(=O)(=O)c4ccc(Cl)c(Cl)c4)CC3)c(F)cc2c1=O 96.6
